System: SN12C
Test: NCI tumour cell line growth inhibition, 48 h
Active and inactive are the calls of the source. Rule as the data show it: active = GI50 up to about 1.1 µM and inactive = higher.
Give your call using only these classes: active, inactive

Prompt: # fetch the recorded call for CN1CCN(C2CC(=O)c3c(Cl)sc(Cl)c32)CC1 (stereo not given) here
Response: inactive

Prompt: Would you kindly repeat that for CC(=O)Oc1ccc2cc(Oc3ccccc3)c(=O)oc2c1 ?
Response: inactive

Prompt: Would you kindly repeat that for CCOC(=O)Cn1c(=O)c(C)cn(COCCO)c1=O ?
Response: inactive

Prompt: Would you kindly repeat that for Cc1c2c(cc[n+]1C)O[B-](c1ccccc1)(c1ccccc1)O2 ?
Response: inactive

Prompt: Would you kindly repeat that for Cc1ccc2nc(-c3ccc(NC(=O)c4ccc(N)cc4)c(S(=O)(=O)O)c3)sc2c1 ?
Response: inactive

Prompt: Would you kindly repeat that for Cc1ccc(Cc2n[nH]c(=O)n2Nc2ccccc2)cc1 ?
Response: inactive

Prompt: Would you kindly repeat that for COc1ccc2[nH]c(C(O)(Cc3cccnc3)Cc3cccnc3)cc2c1 ?
Response: inactive

Prompt: Would you kindly repeat that for O=C1c2cccc3cc([N+](=O)[O-])cc(c23)C(=O)N1c1ccc(OCCN2CCCC2)cc1 ?
Response: inactive

Prompt: Would you kindly repeat that for Cc1ccc(C(=O)NCCN(C)C)c2nc3ccccc3cc12 ?
Response: active

Prompt: Would you kindly repeat that for CC(NS(=O)(=O)c1ccc([N+](=O)[O-])cc1)C(=O)O (stereo not given) ?
Response: inactive

Prompt: Would you kindly repeat that for CCOc1ccc(-n2c(=O)c3nn4c(=O)n(-c5ccc(OCC)cc5)c(=O)c4nn3c2=O)cc1 ?
Response: inactive

Prompt: Would you kindly repeat that for Cc1ccc(NC(=O)CC/C(CC(=O)C(C)(C)C)=N\NC(=O)C[n+]2ccccc2)cc1C ?
Response: inactive

Prompt: Would you kindly repeat that for CCCC(Sc1nc(N)nc2nc[nH]c12)C(=O)O (stereo not given) ?
Response: inactive

Prompt: Would you kindly repeat that for CC1=C2C(=O)[C@H]3[C@@H](CC=C4C[C@@H](O)CC[C@@]43C)[C@@H]2CC[C@]12O[C@@H]1C[C@H](C)CN[C@H]1[C@H]2C ?
Response: inactive

Prompt: Would you kindly repeat that for C[N+](C)(C)CCCCCc1c2nc(c(CCCCC[N+](C)(C)C)c3ccc([nH]3)c(CCCCC[N+](C)(C)C)c3nc(c(CCCCC[N+](C)(C)C)c4ccc1[nH]4)C=C3)C=C2 ?
Response: inactive

Prompt: Would you kindly repeat that for NC(=O)c1ncn2c(=O)n(CCl)nnc12 ?
Response: inactive

Prompt: Would you kindly repeat that for CC(=O)OCC1OC(n2c3c(cc(C#N)c2=O)CCCCCC3)C(OC(C)=O)C(OC(C)=O)C1OC(C)=O (stereo not given) ?
Response: inactive

Prompt: Would you kindly repeat that for O=C(O)CCCN/C(=C1\C(=O)C(=O)N(c2ccccc2)C1=O)c1ccccc1 ?
Response: inactive

Prompt: Would you kindly repeat that for COc1cc(C2SCC(=O)N2c2ccc(Oc3ccc(Cl)cc3)c(Cl)c2)cc(OC)c1OC (stereo not given) ?
Response: inactive

Prompt: Would you kindly repeat that for O=C(CC(c1ccccc1)N1CCCCC1)c1ccccc1 (stereo not given) ?
Response: inactive

All values here come from ChEMBL document CHEMBL1201862.
